# tested-target: AXL (Homo sapiens, UniProt P30530)
# Sequence (P30530 26-894): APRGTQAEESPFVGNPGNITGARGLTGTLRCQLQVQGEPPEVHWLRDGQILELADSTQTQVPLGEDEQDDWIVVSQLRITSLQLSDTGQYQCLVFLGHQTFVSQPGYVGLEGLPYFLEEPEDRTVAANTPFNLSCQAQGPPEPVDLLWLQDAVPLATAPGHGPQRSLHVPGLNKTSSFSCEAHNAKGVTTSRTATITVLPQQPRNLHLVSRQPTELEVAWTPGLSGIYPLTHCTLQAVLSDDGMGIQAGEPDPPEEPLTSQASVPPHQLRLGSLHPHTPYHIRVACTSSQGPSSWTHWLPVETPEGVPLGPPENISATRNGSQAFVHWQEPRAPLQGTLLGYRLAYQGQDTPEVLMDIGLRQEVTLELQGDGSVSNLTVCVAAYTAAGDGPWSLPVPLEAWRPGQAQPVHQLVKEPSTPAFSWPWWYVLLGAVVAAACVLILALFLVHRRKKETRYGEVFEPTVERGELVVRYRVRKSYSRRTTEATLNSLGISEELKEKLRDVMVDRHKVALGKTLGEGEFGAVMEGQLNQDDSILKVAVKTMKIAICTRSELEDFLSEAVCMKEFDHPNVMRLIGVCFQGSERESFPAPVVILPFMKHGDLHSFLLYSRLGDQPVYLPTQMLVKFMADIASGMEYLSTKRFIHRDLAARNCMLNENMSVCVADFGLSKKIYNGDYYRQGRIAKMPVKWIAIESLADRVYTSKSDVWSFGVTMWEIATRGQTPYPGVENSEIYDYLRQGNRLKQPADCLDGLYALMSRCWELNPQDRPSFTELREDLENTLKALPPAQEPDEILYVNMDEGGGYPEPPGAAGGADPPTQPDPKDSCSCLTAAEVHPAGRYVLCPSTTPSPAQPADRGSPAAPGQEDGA
# protocol-notes: Protein kinase assay, AXL
# stated-conditions: recombinant AXL, 1.5 hours treatment, n = 2; read-out: IC50 against AXL kinase activity
pIC50: −log10 of the molar value.

# compound, pIC50
rows = [
    ("CC1(C)c2cc(OC[C@H](O)CO)ccc2C(=O)c2c1oc1cc(C#Cc3cc(C(=O)NC4CC4)ccn3)ccc21 [CH5451098]", 8.42),
]
